- Assay summary: Solubility of mono-fungicides in the solvent of Example 6 and prior art solvents (Example 7)
- Measurement conditions: solvent Example 6; 24° C.
Measurement kind: Maximum solubility (w/v) in Example 6

Query string: Quick one: Maximum solubility (w/v) in Example 6 of "CC(C)N(C)S(=O)(=O)NC(=O)c1cc(-n2c(=O)cc(C(F)(F)F)n(C)c2=O)c(F)cc1Cl" ?
Result string: >10% (w/v)

Query string: Quick one: OC(Cc1ccccc1Cl)(Cn1nc[nH]c1=S)C1(Cl)CC1 (stereo not shown)
Result string: >30% (w/v)

Query string: Quick one: "CO/C=C(/C(=O)OC)c1ccccc1Oc1cc(Oc2ccccc2C#N)ncn1"
Result string: 10% (w/v)

Query string: Quick one: "COC(=O)N(OC)c1ccccc1COc1ccn(-c2ccc(Cl)cc2)n1"
Result string: >25% (w/v)

====

- Assay summary: Solubility of mono-fungicides in the solvent of Example 1 and prior art solvents (Example 2)
- Measurement conditions: solvent Rhodiasolv PolarClean; 24° C.
Measurement kind: Maximum solubility (w/v) in Rhodiasolv PolarClean

Query string: Quick one: Maximum solubility (w/v) in Rhodiasolv PolarClean of "CC(C)N(C)S(=O)(=O)NC(=O)c1cc(-n2c(=O)cc(C(F)(F)F)n(C)c2=O)c(F)cc1Cl" ?
Result string: 25% (w/v)

Query string: Quick one: "COC(=O)N(OC)c1ccccc1COc1ccn(-c2ccc(Cl)cc2)n1"
Result string: 45% (w/v)

Query string: Quick one: OC(Cc1ccccc1Cl)(Cn1nc[nH]c1=S)C1(Cl)CC1 (stereo not shown)
Result string: 50% (w/v)

Query string: Quick one: "CO/C=C(/C(=O)OC)c1ccccc1Oc1cc(Oc2ccccc2C#N)ncn1"
Result string: 15% (w/v)

====

- Assay summary: Solubility of mono-fungicides in the solvent of Example 1 and prior art solvents (Example 2)
- Measurement conditions: solvent Rhodiasolv ADMA10; 24° C.
Measurement kind: Maximum solubility (w/v) in Rhodiasolv ADMA10

Query string: Quick one: Maximum solubility (w/v) in Rhodiasolv ADMA10 of OC(Cc1ccccc1Cl)(Cn1nc[nH]c1=S)C1(Cl)CC1 (stereo not shown) ?
Result string: 40% (w/v)

Query string: Quick one: "CO/C=C(/C(=O)OC)c1ccccc1Oc1cc(Oc2ccccc2C#N)ncn1"
Result string: 2% (w/v)

Query string: Quick one: "CC(C)N(C)S(=O)(=O)NC(=O)c1cc(-n2c(=O)cc(C(F)(F)F)n(C)c2=O)c(F)cc1Cl"
Result string: 10% (w/v)

Query string: Quick one: "COC(=O)N(OC)c1ccccc1COc1ccn(-c2ccc(Cl)cc2)n1"
Result string: 15% (w/v)

====

- Assay summary: Solubility of mono-fungicides in the solvent of Example 1 and prior art solvents (Example 2)
- Measurement conditions: solvent Example 1; 24° C.; 5% intervals, highest still soluble concentration
Measurement kind: Maximum solubility (w/v) in Example 1

Query string: Quick one: Maximum solubility (w/v) in Example 1 of "CC(C)N(C)S(=O)(=O)NC(=O)c1cc(-n2c(=O)cc(C(F)(F)F)n(C)c2=O)c(F)cc1Cl" ?
Result string: 20% (20%) % (w/v)

Query string: Quick one: OC(Cc1ccccc1Cl)(Cn1nc[nH]c1=S)C1(Cl)CC1 (stereo not shown)
Result string: 50% (50%) % (w/v)

Query string: Quick one: "COC(=O)N(OC)c1ccccc1COc1ccn(-c2ccc(Cl)cc2)n1"
Result string: 45% (45%) % (w/v)

Query string: Quick one: "CO/C=C(/C(=O)OC)c1ccccc1Oc1cc(Oc2ccccc2C#N)ncn1"
Result string: 10% (10%) % (w/v)
